tested on: human PKK mRNA; test: Antisense inhibition of human PKK mRNA in HepaRG cells, 3,000 nM (Example 1); format: cell-based; conditions: Table 1; PKK mRNA, HepaRG cells, 3,000 nM, electroporation, ~24 h, relative to untreated control cells
Strand notation (5' to 3'): a small letter for the sugar, then the base; units joined by * are phosphorothioate-linked, units joined directly phosphodiester-linked; [ ] holds rarer units or linkages, { } end groups; capitals alone tell only the bases. e = 2'-O-(2-methoxyethyl) (MOE); [5mC] = 5-methylcytosine; d = 2'-deoxy (DNA)
MEASURED QUANTITY: % inhibition (%)
Field: numeric (%). Do not append units.

For this substance ( 530991 (eA*eT*eT*e[5mC]*eA*dA*dT*dT*d[5mC]*dT*dT*d[5mC]*dT*d[5mC]*d[5mC]*eT*e[5mC]*e[5mC]*eA*eA; antisense) [compound 530991] ), measured % inhibition is 43

For this substance ( 530959 (antisense eT*e[5mC]*eA*eA*e[5mC]*dA*d[5mC]*dT*dG*d[5mC]*dT*dA*dA*d[5mC]*d[5mC]*eT*eT*eA*eG*eA) [compound 530959] ), measured % inhibition is 60

For this substance ( 530998 (eA*eG*eT*eG*eA*dA*dA*dA*dA*d[5mC]*dT*dG*dA*d[5mC]*dA*eG*e[5mC]*eG*eA*eA; antisense) [compound 530998] ), measured % inhibition is 0

For this substance ( 530979 (antisense eG*eG*eT*eT*eA*dA*dA*dA*dG*dG*d[5mC]*dT*dA*dT*dA*eT*e[5mC]*e[5mC]*eA*eG) [compound 530979] ), measured % inhibition is 35

For this substance ( 530932 (antisense eT*eG*eT*e[5mC]*eA*d[5mC]*dT*dT*dA*dA*dA*dA*dA*dT*dG*eA*eA*e[5mC]*eG*eG) [compound 530932] ), measured % inhibition is 52

For this substance ( 530965 (antisense eG*eG*e[5mC]*eA*e[5mC]*dA*dG*dG*dG*d[5mC]*dT*dT*d[5mC]*dA*dG*eT*eG*eA*eG*eA) [compound 530965] ), measured % inhibition is 73

----------
system: human PKK mRNA; test: Dose-dependent antisense inhibition of human PKK in HepaRG cells, 0.19-5.00 uM (Example 5); format: cell-based; conditions: 0.19 μM, HepaRG cells, electroporation, approximately 16 hours; Table 37
Strand notation (5' to 3'): a small letter for the sugar, then the base; units joined by * are phosphorothioate-linked, units joined directly phosphodiester-linked; [ ] holds rarer units or linkages, { } end groups; capitals alone tell only the bases. e = 2'-O-(2-methoxyethyl) (MOE); [5mC] = 5-methylcytosine; d = 2'-deoxy (DNA)
MEASURED QUANTITY: percent inhibition of PKK at 0.19 μM (%)
Field: numeric (%). Do not append units.

For this substance ( 531231 (eT*eA*eT*e[5mC]*eA*d[5mC]*dT*dG*dT*dA*d[5mC]*dT*dA*dG*dT*eT*eT*e[5mC]*e[5mC]*eT) [compound 531231] ), measured percent inhibition of PKK at 0.19 μM is 34

For this substance ( 547731 (eG*eG*eA*eT*eT*dG*dG*dT*dG*dG*dT*dG*dG*dG*dA*eT*eT*eG*eG*eT; antisense) [compound 547731] ), measured percent inhibition of PKK at 0.19 μM is 0

For this substance ( 547622 (antisense eG*eT*e[5mC]*eA*e[5mC]*dT*dG*dT*dA*d[5mC]*d[5mC]*dT*dA*dT*dA*eA*e[5mC]*eT*e[5mC]*eT) [compound 547622] ), measured percent inhibition of PKK at 0.19 μM is 0

For this substance ( 547618 (antisense eA*e[5mC]*eT*eG*eT*d[5mC]*d[5mC]*dT*dA*dT*dA*dT*d[5mC]*dA*d[5mC]*eT*eG*eT*eA*e[5mC]) [compound 547618] ), measured percent inhibition of PKK at 0.19 μM is 0

For this substance ( 546304 (antisense e[5mC]*eT*eT*eT*eT*dA*dT*dT*dT*dG*dT*dG*dA*dG*dA*eA*eA*eG*eG*eT) [compound 546304] ), measured percent inhibition of PKK at 0.19 μM is 0
